target: NAD-dependent protein deacetylase sirtuin-1 (Homo sapiens, UniProt Q96EB6); experiment: Inhibition of human SIRT1 by radioactive deacetylase assay
Sequence (Q96EB6 whole entry): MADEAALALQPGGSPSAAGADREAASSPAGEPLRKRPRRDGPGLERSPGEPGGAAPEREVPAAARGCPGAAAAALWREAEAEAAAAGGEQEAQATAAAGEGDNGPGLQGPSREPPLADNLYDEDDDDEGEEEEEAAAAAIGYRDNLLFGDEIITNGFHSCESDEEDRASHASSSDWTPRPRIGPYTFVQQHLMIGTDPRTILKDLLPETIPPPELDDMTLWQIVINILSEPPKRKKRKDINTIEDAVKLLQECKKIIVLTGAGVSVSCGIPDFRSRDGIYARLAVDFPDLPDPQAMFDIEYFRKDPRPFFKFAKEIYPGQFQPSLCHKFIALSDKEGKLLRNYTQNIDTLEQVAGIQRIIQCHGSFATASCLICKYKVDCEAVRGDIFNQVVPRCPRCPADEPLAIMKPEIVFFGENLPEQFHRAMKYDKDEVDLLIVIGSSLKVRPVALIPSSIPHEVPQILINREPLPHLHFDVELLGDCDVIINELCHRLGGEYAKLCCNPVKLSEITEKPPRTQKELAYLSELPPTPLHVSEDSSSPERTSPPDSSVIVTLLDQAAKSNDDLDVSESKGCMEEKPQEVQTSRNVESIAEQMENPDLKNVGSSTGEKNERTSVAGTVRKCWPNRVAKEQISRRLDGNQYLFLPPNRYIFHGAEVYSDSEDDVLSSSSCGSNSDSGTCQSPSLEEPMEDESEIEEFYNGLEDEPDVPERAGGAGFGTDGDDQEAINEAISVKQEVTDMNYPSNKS
pIC50: −log10 of the molar value.
measure: pIC50

- CN1C(=O)C(c2c[nH]c3ccccc23)=C(c2c[nH]c3ccccc23)C1=O: 4.80
- O=C1Cc2c([nH]c3ccccc23)-c2ccccc2N1 [PAULLONE]: 5.10
- CN(C)CCCn1cc(C2=C(c3c[nH]c4ccccc34)C(=O)NC2=O)c2ccccc21 [GF-109203]: 4.64

====

biological target: NAD-dependent protein deacetylase sirtuin-2 (Homo sapiens); assay: Inhibition of human recombinant SIRT2
Sequence (Q8IXJ6 whole entry): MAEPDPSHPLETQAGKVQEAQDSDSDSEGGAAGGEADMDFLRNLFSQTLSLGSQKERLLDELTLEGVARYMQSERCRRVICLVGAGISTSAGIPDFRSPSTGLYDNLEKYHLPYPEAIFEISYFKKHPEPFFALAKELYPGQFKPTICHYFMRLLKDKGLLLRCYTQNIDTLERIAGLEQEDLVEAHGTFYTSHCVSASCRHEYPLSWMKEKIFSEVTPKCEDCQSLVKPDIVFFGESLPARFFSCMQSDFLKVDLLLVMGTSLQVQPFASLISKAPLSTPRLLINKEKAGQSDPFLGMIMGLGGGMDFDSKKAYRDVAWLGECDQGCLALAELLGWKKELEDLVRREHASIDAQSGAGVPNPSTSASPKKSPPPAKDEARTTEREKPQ
measure: IC50 (µM)

- CN1C(=O)C(c2c[nH]c3ccccc23)=C(c2c[nH]c3ccccc23)C1=O: 33
- CN1CCCC1CCn1cc(C2=C(c3c[nH]c4ccccc34)C(=O)NC2=O)c2ccccc21 (stereo unspecified): 8.3
- O=C1NC(=O)C2=C1c1cn(c3ccccc13)CC[C@@H](C1COC3(CCCCC3)O1)OCCn1cc2c2c(F)cccc21 (stereo partly specified): 20.8
- O=C1NC(=O)C(c2c[nH]c3ccccc23)=C1c1c[nH]c2ccccc12: 4.7
- O=C1NC(=O)C(c2cn(CCOC(CCO)C3COC4(CCCCC4)O3)c3ccccc23)=C1c1c[nH]c2ccccc12 (stereo unspecified): 2.8
- O=C1C(c2c[nH]c3ccccc23)=C(c2c[nH]c3ccccc23)C(=O)N1Cc1ccccc1: 40
- CN(C)CCCn1cc(C2=C(c3c[nH]c4ccccc34)C(=O)NC2=O)c2ccccc21: 7.3
- O=C1NC(=O)C(c2c[nH]c3cccc(F)c23)=C1c1cn(CCOC(CCO)C2COC3(CCCCC3)O2)c2ccccc12 (stereo unspecified): 2.5
- O=C1NC(=O)C(c2c[nH]c3cccc(F)c23)=C1c1cn(CCOC(CCO)C(O)CO)c2ccccc12 (stereo unspecified): 9.5
- CN1C(=O)C(c2cn(Cc3ccccc3)c3ccccc23)=C(c2cn(Cc3ccccc3)c3ccccc23)C1=O: 78.3
